# assay.system: human thrombin (Homo sapiens)
# Construct: human thrombin
# measurement.description: Inactivation rate of human thrombin
# Format: biochemical
# test.conditions: Table VIII; pH 7.5, 25° C; [I] 1.2-54 μM; read-out: kobs/[I]
reported.endpoint: log10 of kinact/KI (log10 of the value in M⁻¹ s⁻¹)
Kindly note that the scale is log10 and the underlying kinact/KI is in M⁻¹ s⁻¹.

{"smiles.structure": "C[C@@H](NC(=O)Nc1ccc2c(Cl)c(OCCSC(=N)N)oc(=O)c2c1)c1ccccc1", "log10 of kinact/KI": 4.08}
{"smiles.structure": "C[C@H](NC(=O)Nc1ccc2c(Cl)c(OCCSC(=N)N)oc(=O)c2c1)c1ccccc1", "log10 of kinact/KI": 4.32}
{"smiles.structure": "N=C(N)SCCOc1oc(=O)c2cc(NC(=O)NCc3ccccc3)ccc2c1Cl", "log10 of kinact/KI": 4.07}
{"smiles.structure": "N=C(N)SCCOc1oc(=O)c2cc(NC(=O)[C@H](N)Cc3ccccc3)ccc2c1Cl", "log10 of kinact/KI": 3.49}
{"smiles.structure": "N=C(N)SCCCOc1oc(=O)c2cc(NC(=O)[C@H](N)Cc3ccccc3)ccc2c1Cl", "log10 of kinact/KI": 2.34}
{"smiles.structure": "C[C@H](N)C(=O)N[C@@H](C)C(=O)Nc1ccc2c(Cl)c(OCCSC(=N)N)oc(=O)c2c1", "log10 of kinact/KI": 2.94}

Sample C[C@H](NC(=O)OC(C)(C)C)C(=O)N[C@@H](C)C(=O)Nc1ccc2c(Cl)c(OCCSC(=N)N)oc(=O)c2c1 — what was its log10 of kinact/KI?
2.99

For the compound N=C(N)SCCCOc1oc(=O)c2cc(NC(=O)Nc3ccccc3)ccc2c1Cl , what log10 of kinact/KI is on record?
3.26

Look at this compound and give its reported log10 of kinact/KI. N=C(N)SCCOc1oc(=O)c2cc(NC(=S)Nc3cccc(C(=O)O)c3)ccc2c1Cl
4.24

log10 of kinact/KI for N=C(N)SCCCOc1oc(=O)c2cc(N)ccc2c1Cl ?
2.88

Reported log10 of kinact/KI for N=C(N)SCCCOc1oc(=O)c2cc(NC(=O)Cc3ccccc3)ccc2c1Cl : what is it?
2.79

For the compound shown here, N=C(N)SCCCOc1oc(=O)c2cc(NC(=O)CCc3ccccc3)ccc2c1Cl , give the reported log10 of kinact/KI.
2.80

log10 of kinact/KI for CC(=O)Nc1ccc2c(Cl)c(OCCCSC(=N)N)oc(=O)c2c1 ?
2.49

Which measured log10 of kinact/KI value corresponds to CC(C)(C)OC(=O)N[C@H](Cc1ccccc1)C(=O)Nc1ccc2c(Cl)c(OCCCSC(=N)N)oc(=O)c2c1 ?
2.36

Recorded log10 of kinact/KI for N=C(N)SCCCOc1oc(=O)c2cc(NC(=O)NCc3ccccc3)ccc2c1Cl , please?
2.85

Provenance of the data: patent US5324648A
